- study system: ZFP SBS#762 (synthetic, UniProt P08047)
- Sequence (P08047 other isoform, or with tags, fused parts or gaps): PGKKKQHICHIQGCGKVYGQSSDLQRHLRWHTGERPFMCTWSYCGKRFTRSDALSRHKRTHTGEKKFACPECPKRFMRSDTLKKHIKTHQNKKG
- experimental protocol: EMSA
- experimental conditions: tags: MBP fusion
parameter measured: Kd
Value and unit, in that order.

Data point: GCGGTGGCTC (dsDNA) DNA 1: GCGGTGGCTC DNA 2: GAGCCACCGC ; Kd = 18 nM
